Experimental Protocol: Phytotoxicity against Zea mays (maize) assessed as growth inhibition at 30 g/ha post-emergence treatment measured after 15 days by crop-selectivity assay
Type: organism-based
Cond: in vivo, read-out: GI
Listed next: entries and their corresponding inhibition at 360 h.
Assay Metric: inhibition at 360 h

C#CCN1C(=O)COc2cc(F)c(N3C(=O)C4=C(CCCC4)C3=O)cc21 = > 10%
C#CCN1C(=O)COc2cc(F)c(N3C(=O)c4ccc(F)cc4C3=O)cc21 = > 10%

---

Experimental Protocol: Phytotoxicity against Oryza sativa (rice) assessed as growth inhibition at 30 g/ha pre-emergence treatment measured after 15 days by crop-selectivity assay
Assay type: organism-based
Cond: in vivo, read-out: GI
Listed next: entries and their corresponding inhibition at 360 h.
Assay Metric: inhibition at 360 h

C#CCN1C(=O)COc2cc(F)c(N3C(=O)c4ccc(F)cc4C3=O)cc21 = > 10%
C#CCN1C(=O)COc2cc(F)c(N3C(=O)C4=C(CCCC4)C3=O)cc21 = > 10%

---

Tested on: Echinochloa crus-galli
Experimental Protocol: Herbicidal activity against Echinochloa crus-galli (barnyard grass) (barnyard grass) assessed as weed growth inhibition at 75 g/ha post-emergence treatment […]
Assay type: functional
Cond: read-out: GI
Assay Metric: inhibition of growth at 75 g/ha

C#CCN1C(=O)COc2cc(F)c(N3C(=O)c4ccc(F)cc4C3=O)cc21 = > 80%
CC1Oc2cc(F)c(N3C(=O)c4cccc(F)c4C3=O)cc2N(CC#CI)C1=O (stereo not given) = < 50%
CC1Oc2cc(F)c(N3C(=O)c4ccccc4C3=O)cc2N(CC#CI)C1=O (stereo not given) = < 50%
O=C1COc2cc(F)c(N3C(=O)c4cccc(F)c4C3=O)cc2N1CC#CI = > 80%
C#CCN1C(=O)COc2cc(F)c(N3C(=O)c4cccc([N+](=O)[O-])c4C3=O)cc21 = < 50%
O=C1COc2cc(F)c(N3C(=O)c4ccccc4C3=O)cc2N1CC#CI = < 50%
O=C1COc2cc(F)c(N3C(=O)c4ccccc4C3=O)cc2N1CC#CBr = < 50%
C#CCN1C(=O)COc2cc(F)c(N3C(=O)c4ccccc4C3=O)cc21 = > 80%
C#CCN1C(=O)COc2cc(F)c(N3C(=O)c4cccc(F)c4C3=O)cc21 = > 80%
C#CCN1C(=O)C(C)Oc2cc(F)c(N3C(=O)c4ccc(C)cc4C3=O)cc21 (stereo not given) = < 50%

---

Listed next: entries and their corresponding inhibition at 360 h.
Experimental Protocol: Phytotoxicity against Brassica rapa subsp. oleifera assessed as growth inhibition at 75 g/ha pre-emergence treatment measured after 15 days by crop-selectivity assay
Assay type: organism-based
Cond: in vivo, read-out: GI
Assay Metric: inhibition at 360 h

C#CCN1C(=O)COc2cc(F)c(N3C(=O)c4ccc(F)cc4C3=O)cc21 = > 10%
C#CCN1C(=O)COc2cc(F)c(N3C(=O)C4=C(CCCC4)C3=O)cc21 [FLUMIOXAZIN] = > 10%

---

Experimental Protocol: Phytotoxicity against Glycine max (soybean) assessed as growth inhibition at 75 g/ha pre-emergence treatment measured after 15 days by crop-selectivity assay
Format: organism-based
Cond: in vivo, 75 g/ha, read-out: GI
Assay Metric: inhibition at 360 h

C#CCN1C(=O)COc2cc(F)c(N3C(=O)C4=C(CCCC4)C3=O)cc21 = > 10%

---

Experimental Protocol: Phytotoxicity against Triticum aestivum (wheat) assessed as growth inhibition at 15 g/ha pre-emergence treatment measured after 15 days by crop-selectivity assay
Assay type: organism-based
Cond: in vivo, 15 g/ha, read-out: GI
Assay Metric: inhibition at 360 h

C#CCN1C(=O)COc2cc(F)c(N3C(=O)C4=C(CCCC4)C3=O)cc21 [FLUMIOXAZIN] = > 10%

---

Experimental Protocol: Phytotoxicity against Triticum aestivum (wheat) assessed as growth inhibition at 150 g/ha pre-emergence treatment measured after 15 days by crop-selectivity assay
Type: organism-based
Cond: in vivo, read-out: GI
Assay Metric: inhibition at 360 h

C#CCN1C(=O)COc2cc(F)c(N3C(=O)C4=C(CCCC4)C3=O)cc21 = > 10%
C#CCN1C(=O)COc2cc(F)c(N3C(=O)c4ccc(F)cc4C3=O)cc21 = > 10%

---

Test system: Amaranthus blitum
Experimental Protocol: Herbicidal activity against Amaranthus blitum assessed as weed growth inhibition at 75 g/ha post-emergence treatment […]
Type: functional
Cond: read-out: GI
Assay Metric: inhibition of growth at 75 g/ha

C#CCN1C(=O)COc2cc(F)c(N3C(=O)c4cccc(C)c4C3=O)cc21 = < 50%
O=C1COc2cc(F)c(N3C(=O)C4=C(CCCC4)C3=O)cc2N1CC#CI = > 80%
CC1Oc2cc(F)c(N3C(=O)c4ccccc4C3=O)cc2N(CC#CI)C1=O (centres undefined) = > 80%
C#CCN1C(=O)COc2cc(F)c(N3C(=O)c4ccccc4C3=O)cc21 = > 80%

---

Tested on: Abutilon theophrasti
Experimental Protocol: Herbicidal activity against Abutilon theophrasti (velvetleaf) assessed as weed growth inhibition at 75 g/ha post-emergence treatment […]
Type: functional
Cond: read-out: GI
Assay Metric: inhibition of growth at 75 g/ha

C#CCN1C(=O)C(C)Oc2cc(F)c(N3C(=O)c4ccccc4C3=O)cc21 (stereo unspecified) = > 80%
C#CCN1C(=O)COc2cc(F)c(N3C(=O)c4cccc(F)c4C3=O)cc21 = > 80%
CN1C(=O)COc2cc(F)c(N3C(=O)c4cccc(F)c4C3=O)cc21 = > 80%
C#CCN1C(=O)COc2cc(F)c(N3C(=O)c4ccccc4C3=O)cc21 = > 80%
O=C1COc2cc(F)c(N3C(=O)c4ccccc4C3=O)cc2N1CC#CI = > 80%
O=C1COc2cc(F)c(N3C(=O)c4ccccc4C3=O)cc2N1CC#CBr = < 50%
C#CCN1C(=O)COc2cc(F)c(N3C(=O)c4cccc([N+](=O)[O-])c4C3=O)cc21 = < 50%
Cc1ccc2c(c1)C(=O)N(c1cc3c(cc1F)OC(C)C(=O)N3CC#CI)C2=O (stereo unspecified) = > 80%
CC1Oc2cc(F)c(N3C(=O)c4ccccc4C3=O)cc2N(CC#CI)C1=O (stereo unspecified) = > 80%
C#CCN1C(=O)C(C)Oc2cc(F)c(N3C(=O)c4ccc(C)cc4C3=O)cc21 (stereo unspecified) = > 80%
O=C1COc2cc(F)c(N3C(=O)c4cccc(F)c4C3=O)cc2N1CC#CI = > 80%
C#CCN1C(=O)COc2cc(F)c(N3C(=O)c4ccc(C)cc4C3=O)cc21 = > 80%
CC1Oc2cc(F)c(N3C(=O)c4cccc(F)c4C3=O)cc2N(CC#CI)C1=O (stereo unspecified) = > 80%
C#CCN1C(=O)COc2cc(F)c(N3C(=O)c4cccc(C)c4C3=O)cc21 = < 50%
C#CCN1C(=O)COc2cc(F)c(N3C(=O)C4=C(CCCC4)C3=O)cc21 [FLUMIOXAZIN] = > 80%
O=C1COc2cc(F)c(N3C(=O)C4=C(CCCC4)C3=O)cc2N1CC#CI = > 80%

---

Tested on: Digitaria sanguinalis
Experimental Protocol: Herbicidal activity against crabgrass Digitaria sanguinalis(hairy crabgrass) assessed as weed growth inhibition at post-emergence treatment […]
Type: functional, organism-based
Returns: string. Value is condition met if measured IC50 is below 40 g/ha, and condition not met if it is greater than or equal to it.

C#CCN1C(=O)COc2cc(F)c(N3C(=O)c4cccc(C)c4C3=O)cc21 = condition not met
CC1Oc2cc(F)c(N3C(=O)c4cccc(F)c4C3=O)cc2N(CC#CI)C1=O (configuration not stated) = condition not met
N#CCN1C(=O)COc2cc(F)c(N3C(=O)c4ccccc4C3=O)cc21 = condition not met
C#CCN1C(=O)COc2cc(F)c(N3C(=O)C4=C(CCCC4)C3=O)cc21 [FLUMIOXAZIN] = condition met
C#CCN1C(=O)COc2cc(F)c(N3C(=O)c4cccc([N+](=O)[O-])c4C3=O)cc21 = condition not met
C#CCN1C(=O)COc2cc(F)c(N3C(=O)c4cccc(F)c4C3=O)cc21 = condition met
CN1C(=O)COc2cc(F)c(N3C(=O)c4ccc(F)cc4C3=O)cc21 = condition not met
O=C1COc2cc(F)c(N3C(=O)c4ccccc4C3=O)cc2N1CC#CI = condition not met
C#CCN1C(=O)C(C)Oc2cc(F)c(N3C(=O)c4cccc(F)c4C3=O)cc21 (configuration not stated) = condition not met
Cc1ccc2c(c1)C(=O)N(c1cc3c(cc1F)OC(C)C(=O)N3CC#CI)C2=O (configuration not stated) = condition not met
C#CCN1C(=O)C(C)Oc2cc(F)c(N3C(=O)c4ccc(C)cc4C3=O)cc21 (configuration not stated) = condition not met
C#CCN1C(=O)COc2cc(F)c(N3C(=O)c4ccccc4C3=O)cc21 = condition met
C#CCN1C(=O)C(C)Oc2cc(F)c(N3C(=O)c4ccccc4C3=O)cc21 (configuration not stated) = condition not met
C#CCN1C(=O)COc2cc(F)c(N3C(=O)c4ccc(C)cc4C3=O)cc21 = condition met
C#CCN1C(=O)COc2cc(F)c(N3C(=O)c4ccc(F)cc4C3=O)cc21 = condition met
O=C1COc2cc(F)c(N3C(=O)c4ccccc4C3=O)cc2N1CC#CBr = condition not met
